# viability at 28.5 h, 10 µM values compiled below
- TEST NAME: in vitro
- MEASUREMENT PARAMETERS: human, hela cells, % viability
Express it in %; write the number only.

| MOLECULE | viability at 28.5 h, 10 µM, % |
| --- | --- |
| C=CCNC(=O)N[C@H]1[C@H](O)[C@@H](Oc2ccccc2)[C@@H]2OC[C@H]1O2 [CBK288812] | 90.5 |

Please look at the following molecule next.
Recorded viability at 28.5 h, 10 µM of CCc1nc(CN2CCCC(NCc3ccc(C(N)=O)cc3)C2)no1 (stereo not drawn) [CBK305373] , please.
94.2
